Catalogue of inhibition at 1 µM values
Target: JAK3 (Homo sapiens)
Construct: purchased Invitrogen
Sequence (P52333 whole entry): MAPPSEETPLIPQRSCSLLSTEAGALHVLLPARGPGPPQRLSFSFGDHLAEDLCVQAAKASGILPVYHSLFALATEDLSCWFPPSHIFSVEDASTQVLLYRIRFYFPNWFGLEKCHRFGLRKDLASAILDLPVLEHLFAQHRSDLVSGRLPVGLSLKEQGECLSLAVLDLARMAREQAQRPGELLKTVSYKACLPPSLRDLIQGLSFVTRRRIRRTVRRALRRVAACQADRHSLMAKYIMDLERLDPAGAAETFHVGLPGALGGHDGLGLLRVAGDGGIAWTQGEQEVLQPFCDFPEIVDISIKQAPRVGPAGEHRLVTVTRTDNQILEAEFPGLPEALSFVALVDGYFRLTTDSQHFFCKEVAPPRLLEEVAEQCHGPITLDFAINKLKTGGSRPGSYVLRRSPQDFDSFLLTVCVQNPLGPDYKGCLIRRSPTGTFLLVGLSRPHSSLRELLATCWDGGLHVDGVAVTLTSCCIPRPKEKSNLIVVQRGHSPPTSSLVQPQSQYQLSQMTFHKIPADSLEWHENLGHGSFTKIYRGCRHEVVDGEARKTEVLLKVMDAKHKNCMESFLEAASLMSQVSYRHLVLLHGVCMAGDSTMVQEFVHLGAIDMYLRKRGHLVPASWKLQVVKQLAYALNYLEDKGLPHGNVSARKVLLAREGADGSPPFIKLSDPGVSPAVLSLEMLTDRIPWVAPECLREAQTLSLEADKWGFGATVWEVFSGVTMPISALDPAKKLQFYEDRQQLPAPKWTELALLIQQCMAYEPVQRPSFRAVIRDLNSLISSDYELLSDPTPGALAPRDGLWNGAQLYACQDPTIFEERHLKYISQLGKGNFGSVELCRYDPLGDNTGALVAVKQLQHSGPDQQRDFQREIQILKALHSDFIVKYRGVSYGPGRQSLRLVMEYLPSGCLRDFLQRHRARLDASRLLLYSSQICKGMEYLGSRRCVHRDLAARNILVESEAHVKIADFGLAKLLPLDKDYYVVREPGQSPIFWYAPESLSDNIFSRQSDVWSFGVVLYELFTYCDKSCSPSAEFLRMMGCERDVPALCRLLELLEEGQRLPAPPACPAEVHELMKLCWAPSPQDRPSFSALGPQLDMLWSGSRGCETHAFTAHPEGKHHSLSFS
Experiment: JAK3 enzyme inhibition test (LANCE method)
Format: biochemical
Conditions: 1 μM test compound; read-out: JAK3 enzyme inhibitory activity (%, 1 μM)
Readout label: inhibition at 1 µM

{"columns": ["Compound", "Readout label", "Measured result"],
 "data": [
  ["Cn1nc(-c2cn(-c3c(F)cccc3F)c(=O)c3c(N)n[nH]c23)cc1N1CCC(C)(C#N)CC1", "inhibition at 1 µM", "100%"],
  ["CC(C)[C@H](C)n1cc(-c2cc(C(=O)N(C)C3CCCC3)n(C)n2)c2[nH]nc(N)c2c1=O", "inhibition at 1 µM", "100%"],
  ["CC1CCCCC1n1cc(-c2cc(N3CCOCC3)n(C)n2)c2[nH]nc(N)c2c1=O (racemic) [Example 146]", "inhibition at 1 µM", "100%"],
  ["Cn1nc(-c2cn(-c3c(F)cccc3F)c(=O)c3c(N)n[nH]c23)cc1N1CCC[C@@H]1CC#N", "inhibition at 1 µM", "99%"],
  ["CC1CCCCC1n1cc(-c2cc(N3CCOCC3)n(C)n2)c2[nH]nc(N)c2c1=O (stereo not shown) [Example 152]", "inhibition at 1 µM", "101%"],
  ["COC1(c2cc(-c3cn(C(C4CC4)C4CC4)c(=O)c4c(N)n[nH]c34)nn2C)CN(C(=O)C(C)C)C1", "inhibition at 1 µM", "99%"],
  ["CNC(=O)c1ccc(-c2cc(-c3cn([C@@H](C)C(C)C)c(=O)c4c(N)n[nH]c34)nn2C)cc1", "inhibition at 1 µM", "99%"]
]}

----------
Target: TYK2 (Homo sapiens, UniProt P29597)
Construct: purchased Invitrogen
Sequence (P29597 whole entry): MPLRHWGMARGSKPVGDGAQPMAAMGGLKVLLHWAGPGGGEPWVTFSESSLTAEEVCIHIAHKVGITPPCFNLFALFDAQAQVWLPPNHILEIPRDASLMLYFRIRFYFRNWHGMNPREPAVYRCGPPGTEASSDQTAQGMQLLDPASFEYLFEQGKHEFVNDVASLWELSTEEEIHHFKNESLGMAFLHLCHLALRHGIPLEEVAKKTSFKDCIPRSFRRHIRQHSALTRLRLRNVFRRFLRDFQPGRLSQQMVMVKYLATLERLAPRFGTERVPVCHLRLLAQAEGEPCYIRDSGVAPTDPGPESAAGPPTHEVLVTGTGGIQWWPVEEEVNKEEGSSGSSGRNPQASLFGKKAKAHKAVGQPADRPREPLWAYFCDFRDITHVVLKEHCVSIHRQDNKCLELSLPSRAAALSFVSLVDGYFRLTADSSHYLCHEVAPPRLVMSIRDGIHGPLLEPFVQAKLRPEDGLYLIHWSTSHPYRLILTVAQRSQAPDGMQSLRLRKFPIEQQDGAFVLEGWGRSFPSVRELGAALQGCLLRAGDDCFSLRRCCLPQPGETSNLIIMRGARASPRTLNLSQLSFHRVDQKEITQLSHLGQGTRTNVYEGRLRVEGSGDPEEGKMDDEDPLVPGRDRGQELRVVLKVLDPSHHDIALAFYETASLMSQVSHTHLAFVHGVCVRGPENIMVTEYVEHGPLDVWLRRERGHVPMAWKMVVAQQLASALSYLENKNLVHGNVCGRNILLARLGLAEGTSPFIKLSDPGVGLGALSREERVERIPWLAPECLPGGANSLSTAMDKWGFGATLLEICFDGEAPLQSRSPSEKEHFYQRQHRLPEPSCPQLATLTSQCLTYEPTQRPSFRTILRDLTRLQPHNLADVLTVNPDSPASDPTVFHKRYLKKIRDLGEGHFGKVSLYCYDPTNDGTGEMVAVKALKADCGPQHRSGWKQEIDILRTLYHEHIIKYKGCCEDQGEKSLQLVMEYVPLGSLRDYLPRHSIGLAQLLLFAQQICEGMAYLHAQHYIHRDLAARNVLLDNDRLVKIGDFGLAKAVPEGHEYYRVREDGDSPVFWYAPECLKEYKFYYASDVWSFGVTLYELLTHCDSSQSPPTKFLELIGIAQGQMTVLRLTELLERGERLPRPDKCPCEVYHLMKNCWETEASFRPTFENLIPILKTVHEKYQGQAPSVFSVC
Assay: TYK2 enzyme inhibition test (LANCE method)
Type: biochemical
Conditions: 1 μM test compound; read-out: TYK2 enzyme inhibitory activity (%, 1 μM)
Catalogue of inhibition at 1 µM values

{"columns": ["Compound", "Unit spec", "inhibition at 1 µM"],
 "data": [
  ["CC(C)[C@H](C)n1cc(-c2cc(N3CCN(S(=O)(=O)C(C)C)CC3)n(C)n2)c2[nH]nc(N)c2c1=O", "%", 100],
  ["CC1CN(c2cc(-c3cn([C@@H](C)C(C)C)c(=O)c4c(N)n[nH]c34)nn2C)CCO1 (stereo partly drawn)", "%", 99],
  ["CC(C)[C@H](C)n1cc(-c2cc(C(C)(C)CO)n(C)n2)c2[nH]nc(N)c2c1=O", "%", 100],
  ["CC(C)[C@H](C)n1cc(-c2cc(N(C)C3CCCC3)n(C)n2)c2[nH]nc(N)c2c1=O", "%", 99],
  ["CC1CCCCC1n1cc(-c2cc(N3CCOCC3)n(C)n2)c2[nH]nc(N)c2c1=O (racemic) [Example 146]", "%", 100],
  ["C[C@@H](C1CC1)n1cc(-c2cc(N3CCC(C)(O)CC3)n(C)n2)c2[nH]nc(N)c2c1=O", "%", 99],
  ["CC(C)[C@H](C)n1cc(-c2cc(N3CCCOCC3)n(C)n2)c2[nH]nc(N)c2c1=O", "%", 100],
  ["Cn1nc(-c2cn(C3CCCC3(C)C)c(=O)c3c(N)n[nH]c23)cc1CN1CCS(=O)(=O)CC1 (racemic) [Example 72]", "%", 100],
  ["C[C@H](C1CC1)n1cc(-c2cc(C(C)(C)O)n(C)n2)c2[nH]nc(N)c2c1=O", "%", 99],
  ["Cn1nc(-c2cn(C3CCCC3(C)C)c(=O)c3c(N)n[nH]c23)cc1N1CCOCC1 (racemic) [Example 73]", "%", 100],
  ["COC1(c2cc(-c3cn([C@@H](C)C(C)C)c(=O)c4c(N)n[nH]c34)nn2C)CN(S(=O)(=O)C(C)C)C1", "%", 100],
  ["CC(C)[C@H](C)n1cc(-c2cc(C(=O)N(C)C3CCOCC3)n(C)n2)c2[nH]nc(N)c2c1=O", "%", 98]
]}

----------
Catalogue of JAK2 enzyme inhibitory activity (%, 1 μM) values
Target: JAK2 (Homo sapiens)
Construct: purchased Invitrogen
Sequence (O60674 whole entry): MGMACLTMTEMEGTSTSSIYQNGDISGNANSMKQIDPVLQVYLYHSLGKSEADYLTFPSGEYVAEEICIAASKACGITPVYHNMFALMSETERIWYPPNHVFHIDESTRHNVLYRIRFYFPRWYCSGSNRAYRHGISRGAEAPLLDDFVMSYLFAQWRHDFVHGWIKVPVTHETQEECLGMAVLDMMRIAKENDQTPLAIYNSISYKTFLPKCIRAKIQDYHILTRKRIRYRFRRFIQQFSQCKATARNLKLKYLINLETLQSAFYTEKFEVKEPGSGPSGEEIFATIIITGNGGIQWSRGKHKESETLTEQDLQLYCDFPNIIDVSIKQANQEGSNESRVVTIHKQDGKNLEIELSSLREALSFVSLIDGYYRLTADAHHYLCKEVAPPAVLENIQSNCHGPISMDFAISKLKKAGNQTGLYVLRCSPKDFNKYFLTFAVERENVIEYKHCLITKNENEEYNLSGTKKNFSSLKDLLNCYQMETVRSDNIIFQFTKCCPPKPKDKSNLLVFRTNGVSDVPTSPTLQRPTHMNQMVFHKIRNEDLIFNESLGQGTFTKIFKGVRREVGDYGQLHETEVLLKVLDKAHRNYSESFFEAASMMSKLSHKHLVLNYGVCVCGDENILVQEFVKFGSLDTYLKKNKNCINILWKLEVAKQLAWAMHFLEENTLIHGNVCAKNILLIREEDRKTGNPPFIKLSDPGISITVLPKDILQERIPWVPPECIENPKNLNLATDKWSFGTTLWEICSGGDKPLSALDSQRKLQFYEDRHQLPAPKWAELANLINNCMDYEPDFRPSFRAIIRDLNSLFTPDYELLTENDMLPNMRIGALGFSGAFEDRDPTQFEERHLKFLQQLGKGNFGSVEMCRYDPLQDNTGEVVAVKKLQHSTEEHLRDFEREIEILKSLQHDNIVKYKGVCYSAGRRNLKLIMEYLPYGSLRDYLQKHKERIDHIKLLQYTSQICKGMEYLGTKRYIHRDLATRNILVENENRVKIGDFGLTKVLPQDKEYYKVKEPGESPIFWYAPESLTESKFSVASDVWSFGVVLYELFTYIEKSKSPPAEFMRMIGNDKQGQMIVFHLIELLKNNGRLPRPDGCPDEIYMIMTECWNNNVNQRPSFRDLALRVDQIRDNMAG
Test: JAK2 enzyme inhibition test (LANCE method)
Format: biochemical
Settings: 1 μM test compound; 1 µM
Readout label: JAK2 enzyme inhibitory activity (%, 1 μM)

{"columns": ["Molecule", "Measured result"],
 "data": [
  ["CC(C)[C@H](C)n1cc(-c2cc(N3CCN4CCCC4C3)n(C)n2)c2[nH]nc(N)c2c1=O (stereo partly drawn) [Example 62]", "99%"],
  ["CC(C)C(C#N)n1cc(-c2cc(N3CCOCC3)n(C)n2)c2[nH]nc(N)c2c1=O (stereo not drawn) [Example 113]", "98%"],
  ["COC1(c2cc(-c3cn(C(C#N)C(C)C)c(=O)c4c(N)n[nH]c34)nn2C)CCC(F)(F)CC1 (stereo not drawn) [Example 138]", "99%"],
  ["CC1CCCCC1n1cc(-c2cc(C(C)(C)O)n(C)n2)c2[nH]nc(N)c2c1=O (stereo not drawn) [Example 120]", "100%"],
  ["CC(C)[C@H](C)n1cc(-c2cc(N3CCN4CCCC4C3)n(C)n2)c2[nH]nc(N)c2c1=O (stereo partly drawn) [Example 61]", "99%"],
  ["CC1CCCCC1n1cc(-c2cc(C(C)(C)O)n(C)n2)c2[nH]nc(N)c2c1=O (stereo not drawn) [Example 118]", "97%"],
  ["CC1CCCCC1n1cc(-c2cc(N3CCOCC3)n(C)n2)c2[nH]nc(N)c2c1=O (stereo not drawn) [Example 155]", "81%"],
  ["CC(C)[C@H](C)n1cc(-c2cc(N3CCC(C)(O)C3)n(C)n2)c2[nH]nc(N)c2c1=O (stereo partly drawn) [Example 63]", "99%"],
  ["Cn1nc(-c2cn(C3CCCC3(C)C)c(=O)c3c(N)n[nH]c23)cc1N1CCOCC1 (stereo not drawn)", "84%"]
]}

----------
Target: JAK1 (Homo sapiens, UniProt P23458)
Construct: purchased Invitrogen
Sequence (P23458 whole entry): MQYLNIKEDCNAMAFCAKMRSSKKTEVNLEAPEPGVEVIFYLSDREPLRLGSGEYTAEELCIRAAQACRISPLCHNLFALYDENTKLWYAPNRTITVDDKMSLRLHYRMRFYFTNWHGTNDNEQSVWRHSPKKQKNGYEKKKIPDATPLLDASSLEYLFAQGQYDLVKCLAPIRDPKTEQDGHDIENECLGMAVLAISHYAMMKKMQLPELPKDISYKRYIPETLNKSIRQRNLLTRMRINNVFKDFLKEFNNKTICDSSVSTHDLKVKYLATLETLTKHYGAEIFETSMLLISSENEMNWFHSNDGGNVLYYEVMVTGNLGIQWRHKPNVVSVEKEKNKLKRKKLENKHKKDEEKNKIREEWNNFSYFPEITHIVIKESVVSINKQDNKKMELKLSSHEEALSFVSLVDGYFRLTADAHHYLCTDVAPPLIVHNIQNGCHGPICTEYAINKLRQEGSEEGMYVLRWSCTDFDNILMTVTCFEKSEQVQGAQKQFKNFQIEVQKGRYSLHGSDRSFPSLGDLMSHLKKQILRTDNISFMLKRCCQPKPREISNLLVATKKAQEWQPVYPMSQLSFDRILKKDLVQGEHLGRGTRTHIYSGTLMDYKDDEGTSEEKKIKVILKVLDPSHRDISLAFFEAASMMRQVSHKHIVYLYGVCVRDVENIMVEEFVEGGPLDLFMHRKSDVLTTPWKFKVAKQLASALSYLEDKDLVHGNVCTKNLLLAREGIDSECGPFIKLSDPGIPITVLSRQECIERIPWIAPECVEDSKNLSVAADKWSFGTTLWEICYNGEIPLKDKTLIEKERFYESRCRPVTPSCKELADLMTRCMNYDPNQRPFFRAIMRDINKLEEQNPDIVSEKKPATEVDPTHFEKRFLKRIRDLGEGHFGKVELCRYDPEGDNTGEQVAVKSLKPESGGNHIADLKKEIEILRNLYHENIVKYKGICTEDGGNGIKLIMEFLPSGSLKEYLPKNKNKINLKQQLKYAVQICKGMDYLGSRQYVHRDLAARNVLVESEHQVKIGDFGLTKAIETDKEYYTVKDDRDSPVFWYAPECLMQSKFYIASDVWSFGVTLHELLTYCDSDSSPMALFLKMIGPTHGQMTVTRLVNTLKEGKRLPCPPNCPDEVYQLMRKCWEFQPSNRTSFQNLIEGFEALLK
Test: JAK1 enzyme inhibition test (LANCE method)
Assay type: biochemical
Conditions: 1 μM test compound; read-out: JAK1 enzyme inhibitory activity (%, 1 μM)
Experimental: JAK1 enzyme inhibitory activity of test compounds was measured by the LANCE method (PerkinElmer). First, a test compound diluted with assay buffer (50 mM HEPES (pH 7.5), 10 mM MgCl2, 1 mM EGTA, 2 mM DTT, 0.01% Tween20, 0.01% BSA) was added to a 384-well plate by 2 μL each. Then, a JAK1 (Invitrogen) solution and a fluorescence-labeled peptide substrate (ULight-JAK1, PerkinElmer) solution diluted with assay buffer to 187.5 ng/mL and 300 nM, respectively, were added by 2 μL each. […]

{"columns": ["Compound", "inhibition at 1 µM (%)"],
 "data": [
  ["COC1(c2cc(-c3cn(-c4c(F)cccc4F)c(=O)c4c(N)n[nH]c34)nn2C)CN(S(C)(=O)=O)C1", 94],
  ["CN(C)[C@H]1CCN(c2cc(-c3cn(C(C4CC4)C4CC4)c(=O)c4c(N)n[nH]c34)nn2C)C1", 99],
  ["C[C@@H](C1CC1)n1cc(-c2cc(C(C)(C)O)n(C)n2)c2[nH]nc(N)c2c1=O", 100],
  ["CC(C)[C@H](C)n1cc(-c2cc(N3CCOCC3)n(C)n2)c2[nH]nc(N)c2c1=O", 97],
  ["Cn1nc(-c2cn(-c3c(F)cccc3C#N)c(=O)c3c(N)n[nH]c23)cc1C1CCOCC1", 97],
  ["CC(C)[C@H](C)n1cc(-c2cc(C3(O)CCC(F)(F)CC3)n(C)n2)c2[nH]nc(N)c2c1=O", 98],
  ["CC(C)C(C(N)=O)n1cc(-c2cc(N3CCOCC3)n(C)n2)c2[nH]nc(N)c2c1=O (stereo not drawn)", 68],
  ["CN(C[C@H]1CCCN1c1cc(-c2cn(C(C3CC3)C3CC3)c(=O)c3c(N)n[nH]c23)nn1C)S(C)(=O)=O", 97],
  ["CC(C)[C@@H](C)n1cc(-c2cc(C(C)(C)O)n(C)n2)c2[nH]nc(N)c2c1=O", 82],
  ["Cn1nc(-c2cn(-c3c(F)cccc3F)c(=O)c3c(N)n[nH]c23)cc1N1CCOCC1", 99],
  ["COCCN(C)C(=O)c1cc(-c2cn([C@@H](C)C(C)C)c(=O)c3c(N)n[nH]c23)nn1C", 95],
  ["CC(C)[C@H](C)n1cc(-c2cc(C(C)(C)C#N)n(C)n2)c2[nH]nc(N)c2c1=O", 99],
  ["CC(C1CC1)n1cc(-c2cc(CN3CCS(=O)(=O)CC3)n(C)n2)c2[nH]nc(N)c2c1=O (stereo not drawn)", 98],
  ["CN(C[C@H]1CCCN1c1cc(-c2cn(C(C3CC3)C3CC3)c(=O)c3c(N)n[nH]c23)nn1C)C(=O)OC(C)(C)C", 93],
  ["Cn1nc(-c2cn(-c3c(F)cccc3F)c(=O)c3c(N)n[nH]c23)cc1N1CCC[C@@H]1CC#N", 98],
  ["CC(C)[C@H](C)n1cc(-c2cc(C3=CCOCC3)n(C)n2)c2[nH]nc(N)c2c1=O", 99],
  ["Cn1nc(-c2cn(C(C3CC3)C3CC3)c(=O)c3c(N)n[nH]c23)cc1N1CCC[C@@H]1CO", 99],
  ["CN(C)[C@@H]1CCN(c2cc(-c3cn(C(C4CC4)C4CC4)c(=O)c4c(N)n[nH]c34)nn2C)C1", 100]
]}

Taken from patent US9637483B2.
